The origin of these recorded values is BindingDB's records for doi:10.1016/j.bmc.2020.115716.

- PROCEDURE_SUMMARY: Inhibition of HCV genotype 2a NS5A infected in Huh7 cells assessed as reduction in viral replication incubated 3 days and measured by bright Glo-luciferase reporter gene assay
pIC50: −log10 of the molar value.
In this section, each of the compounds is paired with its reported pIC50.

ITEM_SMILES	pIC50
COC(=O)N[C@H](C(=O)N1CCC[C@H]1c1ncc(-c2ccc(C#CC#Cc3cnc([C@@H]4CCCN4C(=O)[C@H](NC(=O)OC)c4ccccc4)[nH]3)c(N(C)c3ccccc3)c2)[nH]1)C(C)C	10.96
COC(=O)N[C@H](C(=O)N1CCC[C@H]1c1ncc(C#CC#Cc2ccc(-c3cnc([C@@H]4CCCN4C(=O)[C@H](NC(=O)OC)c4ccccc4)[nH]3)cc2)[nH]1)C(C)C	11.15
COC(=O)N[C@H](C(=O)N1CCC[C@H]1c1ncc(-c2cc(F)c(C#CC#Cc3cnc([C@@H]4CCCN4C(=O)[C@H](NC(=O)OC)c4ccccc4)[nH]3)c(-c3ccccc3)c2)[nH]1)C(C)C	11.30
COC(=O)N[C@H](C(=O)N1CCC[C@H]1c1ncc(-c2ccc(C#CC#Cc3cnc([C@@H]4CCCN4C(=O)[C@H](NC(=O)OC)c4ccccc4)[nH]3)c(-c3ccc(N(C)C)cc3)c2)[nH]1)C(C)C	10.89
COC(=O)N[C@H](C(=O)N1CCC[C@H]1c1ncc(-c2ccc(C#CC#Cc3cnc([C@@H]4CCCN4C(=O)[C@H](NC(=O)OC)c4ccccc4)[nH]3)c(N3CCN(C)CC3)c2)[nH]1)C(C)C	9.84
COC(=O)N[C@H](C(=O)N1CCC[C@H]1c1ncc(C#CC#Cc2ccc(-c3cnc([C@@H]4CCCN4C(=O)[C@@H](NC(=O)OC)C(C)C)[nH]3)cc2-c2ccc3ccccc3c2)[nH]1)C(C)C	10.55
COC(=O)N[C@H](C(=O)N1CCC[C@H]1c1ncc(-c2cc(C)c(C#CC#Cc3cnc([C@@H]4CCCN4C(=O)[C@H](NC(=O)OC)c4ccccc4)[nH]3)c(-c3ccccc3)c2)[nH]1)C(C)C	11.52
COC(=O)N[C@H](C(=O)N1CCC[C@H]1c1ncc(C#CC#Cc2ccc(-c3cnc([C@@H]4CCCN4C(=O)[C@@H](NC(=O)OC)C(C)C)[nH]3)cc2-c2ccccc2)[nH]1)C(C)C	10.52
COC(=O)N[C@H](C(=O)N1CCC[C@H]1c1ncc(-c2ccc(C#CC#Cc3cnc([C@@H]4CCCN4C(=O)[C@H](NC(=O)OC)c4ccccc4)[nH]3)c(-c3cccc(-c4ccccc4)c3)c2)[nH]1)C(C)C	10.48
COC(=O)N[C@H](C(=O)N1CCC[C@H]1c1ncc(-c2ccc(C#CC#Cc3cnc([C@@H]4CCCN4C(=O)[C@@H](NC(=O)OC)C(C)C)[nH]3)cc2)[nH]1)c1ccccc1	9.92
COC(=O)N[C@H](C(=O)N1CCC[C@H]1c1ncc(-c2ccc(C#CC#Cc3cnc([C@@H]4CCCN4C(=O)[C@H](NC(=O)OC)c4ccccc4)[nH]3)cc2)[nH]1)C(C)C	10.80
COC(=O)N[C@H](C(=O)N1CCC[C@H]1c1ncc(-c2ccc(C#CC#Cc3cnc([C@@H]4CCCN4C(=O)[C@H](NC(=O)OC)c4ccccc4)[nH]3)c(-c3cccc(C(C)(C)C)c3)c2)[nH]1)C(C)C	9.98
COC(=O)N[C@H](C(=O)N1CCC[C@H]1c1ncc(-c2ccc(C#CC#Cc3cnc([C@@H]4CCCN4C(=O)[C@H](NC(=O)OC)c4ccccc4)[nH]3)c(Sc3ccccc3)c2)[nH]1)C(C)C	10.85
COC(=O)N[C@H](C(=O)N1CCC[C@H]1c1ncc(C#CC#Cc2c(F)cc(-c3cnc([C@@H]4CCCN4C(=O)[C@@H](NC(=O)OC)C(C)C)[nH]3)cc2-c2ccccc2)[nH]1)C(C)C	10.82
COC(=O)N[C@H](C(=O)N1CCC[C@H]1c1ncc(-c2ccc(C#CC#Cc3cnc([C@@H]4CCCN4C(=O)[C@H](NC(=O)OC)c4ccccc4)[nH]3)c(-c3ccc(N4CCN(C)CC4)cc3)c2)[nH]1)C(C)C	10.64
COC(=O)N[C@H](C(=O)N1CCC[C@H]1c1ncc(C#CC#Cc2ccc(-c3cnc([C@@H]4CCCN4C(=O)[C@@H](NC(=O)OC)C(C)C)[nH]3)cc2)[nH]1)c1ccccc1	9.37
COC(=O)N[C@H](C(=O)N1CCC[C@H]1c1ncc(C#CC#Cc2ccc(-c3cnc([C@@H]4CCCN4C(=O)[C@@H](NC(=O)OC)C(C)C)[nH]3)cc2-c2ccc(C(C)(C)C)cc2)[nH]1)C(C)C	8.77
COC(=O)N[C@H](C(=O)N1CCC[C@H]1c1ncc(C#CC#Cc2ccc(-c3cnc([C@@H]4CCCN4C(=O)[C@@H](NC(=O)OC)C(C)C)[nH]3)cc2-c2cccc(-c3ccccc3)c2)[nH]1)C(C)C	9.35
COC(=O)N[C@H](C(=O)N1CCC[C@H]1c1ncc(-c2ccc(C#CC#Cc3cnc([C@@H]4CCCN4C(=O)[C@H](NC(=O)OC)c4ccccc4)[nH]3)c(Oc3ccccc3)c2)[nH]1)C(C)C	10.89
COC(=O)N[C@H](C(=O)N1CCC[C@H]1c1ncc(C#CC#Cc2c(C)cc(-c3cnc([C@@H]4CCCN4C(=O)[C@@H](NC(=O)OC)C(C)C)[nH]3)cc2-c2ccccc2)[nH]1)C(C)C	11.10
COC(=O)N[C@H](C(=O)N1CCC[C@H]1c1ncc(-c2ccc(C#CC#Cc3cnc([C@@H]4CCCN4C(=O)[C@H](NC(=O)OC)c4ccccc4)[nH]3)c(-c3cccc(F)c3F)c2)[nH]1)C(C)C	12.00
